// values below are reported IC50
# Measured Target: HIV-integrase (Human immunodeficiency virus type 1 group M subtype B)
# Construct: Recombinant integrase (0.26 ng) was incubated with the beads
# Assay Remarks: in-vitro activity against HIV-integrase (HIV Integrase Inhibition, SPA bead assay)
# Assay type: biochemical
# Condition Set: Table 1; recombinant integrase, activity class

Below: 8 molecules and their reported IC50.
{"Molecule": "Cc1ccc(CNC(=O)c2nc3n(c(=O)c2O)CCCC32CCC2)cc1C [Example 69]", "IC50": "1 to 10 nM"}
{"Molecule": "O=C(NCc1ccc(F)cc1)c1nc2n(c(=O)c1O)CCOC21CCNCC1 [Example 88]", "IC50": "10 to 100 nM"}
{"Molecule": "O=C(NCc1ccc(F)cc1-n1cncn1)c1nc2n(c(=O)c1O)CCCOC21CCC1 [Example 60]", "IC50": "1 to 10 nM"}
{"Molecule": "O=C(NCCCc1ccc(F)cc1)c1nc2n(c(=O)c1O)CCOC21CCCC1 [Example 31]", "IC50": "10 to 100 nM"}
{"Molecule": "O=C(NCc1ccc(F)cc1-n1cncn1)c1nc2n(c(=O)c1O)CCOC21CCOC1 (stereo not drawn) [Example 38]", "IC50": "1 to 10 nM"}
{"Molecule": "O=C(NCc1ccccc1N1CCCCS1(=O)=O)c1nc2n(c(=O)c1O)CCCC21CCC1 [Example 83]", "IC50": "10 to 100 nM"}
{"Molecule": "O=C(NCc1cc(Cl)ccc1Cl)c1nc2n(c(=O)c1O)CCCC21CCC1 [Example 76]", "IC50": "1 to 10 nM"}
{"Molecule": "O=C(NCc1ccccc1-n1cncn1)c1nc2n(c(=O)c1O)CCCC21CCCC1 [Example 3]", "IC50": "1 to 10 nM"}

Next molecule, IC50 to be filled in.
Tell me IC50 reported for O=C(NCCc1ccc(F)cc1)c1nc2n(c(=O)c1O)CCOC21CCCC1 [Example 30]
10 to 100 nM

---

// values below are reported pIC50
# Measured Target: HIV-integrase (Human immunodeficiency virus type 1 group M subtype B)
# Construct: Recombinant integrase (0.26 ng) was incubated with the beads
# Assay Remarks: in-vitro activity against HIV-integrase (HIV Integrase Inhibition, SPA bead assay)
# Type: biochemical
# Condition Set: Table 1a; recombinant integrase, activity class
# Protocol: To evaluate in-vitro activity against HIV-integrase, 5 pmole of biotin labeled substrate DNA was bound to 100 μg of Streptavidin coated PVT SPA beads (Amersham Pharmacia Biotech). Recombinant integrase (0.26 ng) was incubated with the beads for 90 min at 37° C. Unbound enzyme was removed by washing the complex followed by addition of inhibitors and […] of P33 labeled target DNA. […] Samples were counted in TopCountNXT (Packard) and the CPM was used as a measure of integration. […]
pIC50: −log10 of the molar value.

{"Chem Smiles": "Cc1ncn(-c2cc(F)ccc2CNC(=O)c2nc3n(c(=O)c2O)CCOC32COC2)n1", "Endpoint": "pIC50", "Value Measured": "8.00 to 9.00"}
{"Chem Smiles": "Cc1nnn(-c2cc(F)ccc2CNC(=O)c2nc3n(c(=O)c2O)CCOC32CCC2)c1C", "Endpoint": "pIC50", "Value Measured": "7.00 to 8.00"}
{"Chem Smiles": "O=C(NCc1ccc(F)cc1-n1cncn1)c1nc2n(c(=O)c1O)CCNC21CCC1", "Endpoint": "pIC50", "Value Measured": "8.00 to 9.00"}
{"Chem Smiles": "Cc1ncn(-c2cc(F)ccc2CNC(=O)c2nc3n(c(=O)c2O)CCCOC32CCC2)n1", "Endpoint": "pIC50", "Value Measured": "8.00 to 9.00"}
{"Chem Smiles": "O=C(NCc1ccccc1N1CCC1=O)c1nc2n(c(=O)c1O)CCOC21CCC1", "Endpoint": "pIC50", "Value Measured": "8.00 to 9.00"}
{"Chem Smiles": "CN1CCn2c(nc(C(=O)NCc3ccc(F)cc3)c(O)c2=O)C12CCCC2", "Endpoint": "pIC50", "Value Measured": "8.00 to 9.00"}
{"Chem Smiles": "CC(C)(C)c1cn(-c2cc(F)ccc2CNC(=O)c2nc3n(c(=O)c2O)CCOC32CCC2)nn1", "Endpoint": "pIC50", "Value Measured": "7.00 to 8.00"}
{"Chem Smiles": "O=C(NCc1ccc(F)cc1-n1ccnn1)c1nc2n(c(=O)c1O)CCOC21CCOCC1", "Endpoint": "pIC50", "Value Measured": "8.00 to 9.00"}

Fill: pIC50 (HIV-integrase (Human immunodeficiency virus type 1 group M subtype B)) for this compound `Cc1cnnn1-c1cc(F)ccc1CNC(=O)c1nc2n(c(=O)c1O)CCOC21CCC1`
8.00 to 9.00

Fill: pIC50 (HIV-integrase (Human immunodeficiency virus type 1 group M subtype B)) for this compound `CN1CCn2c(nc(C(=O)NCc3ccc(F)cc3-n3cncn3)c(O)c2=O)C12CCCCC2`
8.00 to 9.00

Fill: pIC50 (HIV-integrase (Human immunodeficiency virus type 1 group M subtype B)) for this compound `Cc1nc(C)n(-c2cc(F)ccc2CNC(=O)c2nc3n(c(=O)c2O)CCOC32CCCC2)n1`
8.00 to 9.00

Fill: pIC50 (HIV-integrase (Human immunodeficiency virus type 1 group M subtype B)) for this compound `Cc1nnn(-c2cc(F)ccc2CNC(=O)c2nc3n(c(=O)c2O)CCCOC32CCC2)c1C`
7.00 to 8.00

Fill: pIC50 (HIV-integrase (Human immunodeficiency virus type 1 group M subtype B)) for this compound `O=C(NCc1ccc(F)cc1N1CCC1=O)c1nc2n(c(=O)c1O)CCOC21CCC1`
8.00 to 9.00
